Tested on: RAW264.7
Test: Antiinflammatory activity against mouse RAW264.7 cells assessed as inhibition of LPS-induced nitrite accumulation after 24 hrs by Griess reagent method
Assay type: functional, cell-based
Conditions: RAW264.7, 24 h
pIC50: −log10 of the molar value.
readout_type: pIC50

See these solved cases before continuing.
| smiles_representation | result |
| --- | --- |
| O=c1cc(-c2ccc(O)cc2)oc2cc(O[C@@H]3O[C@H](CO)[C@@H](O)[C@H](O)[C@H]3O[C@@H]3OC[C@](O)(CO)[C@H]3O)cc(O)c12 | < 4.70 |
| C[C@H]1[C@H](C)C(=O)C[C@]2(C)C[C@H](O)[C@]3(C)C(=CC(=O)[C@@H]4[C@@]5(C)C[C@H](O[C@@H]6O[C@H](CO)[C@@H](O)[C@H](O)[C@H]6O)[C@H](O)C(C)(C)[C@@H]5CC[C@]43C)[C@H]12 | < 4.70 |

Note: attention shifts to another entry.
What is its pIC50 for RAW264.7? Entry: `O=C1C[C@@H](c2ccc(O)cc2)Oc2cc(O[C@@H]3O[C@H](CO)[C@@H](O)[C@H](O)[C@H]3O[C@@H]3OC[C@](O)(CO)[C@H]3O)cc(O)c21` < 4.70
